# assayed-system: human recombinant Yes [a.a. 2–543 (end)] (Homo sapiens)
# Construct: human recombinant Yes [a.a; 2–543 (end)]; purchased BPS Bioscience 40488
# Sequence (P07947 2-543): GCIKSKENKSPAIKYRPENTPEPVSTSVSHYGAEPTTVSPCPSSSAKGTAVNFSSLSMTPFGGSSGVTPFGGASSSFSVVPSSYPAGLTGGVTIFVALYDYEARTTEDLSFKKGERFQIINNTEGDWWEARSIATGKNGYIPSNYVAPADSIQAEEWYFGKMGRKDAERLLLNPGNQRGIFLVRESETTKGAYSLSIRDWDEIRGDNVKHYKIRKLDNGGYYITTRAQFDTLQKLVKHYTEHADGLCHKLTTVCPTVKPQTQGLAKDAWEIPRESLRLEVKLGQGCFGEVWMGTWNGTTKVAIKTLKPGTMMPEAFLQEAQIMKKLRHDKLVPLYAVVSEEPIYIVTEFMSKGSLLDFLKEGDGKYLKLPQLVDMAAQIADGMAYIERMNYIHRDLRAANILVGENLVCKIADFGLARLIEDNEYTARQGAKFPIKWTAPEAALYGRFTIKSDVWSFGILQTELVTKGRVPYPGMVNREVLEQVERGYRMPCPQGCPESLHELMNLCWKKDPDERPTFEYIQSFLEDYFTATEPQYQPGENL
# assay-text: ADP-Glo kinase assay, inhibition rates of Yes phosphorylation activity (first and second screening)
# Type: biochemical
# condition-label: first screening; mean of n = 4 wells; 10 μmol L−1 compound
property-label: First screening IR (inhibition rate) (%)

P. CCC(Sc1n[nH]c(C(C)C)n1)C(=O)Nc1ccc(F)cc1 (centres unmarked)
Q. CC(c1ccc(S(N)(=O)=O)cc1)N(C)S(=O)(=O)c1cc(Cl)cc(Cl)c1 (centres unmarked)
stdin: # query: argmin of First screening IR (inhibition rate) over P and Q Which one? Tell me its label.
stdout: P

a. O=S1(=O)C=CC(Br)C1 (centres unmarked)
b. N#C/C(=C(/O)COC(=O)CCc1ccccc1)c1nc2ccccc2[nH]1
stdin: Given the listed items, does a or b have the lesser reported First screening IR (inhibition rate)? Record your answer as the label of the chosen record.
stdout: a
(a: 3%, b: 5%)

A. O=C(NCc1ccnc(Oc2ccccc2)c1)c1ccc(OCc2cccnc2)cc1
B. CN1C/C(=C/c2ccc(SC(F)(F)F)cc2)c2nc3ccccc3c(C(=O)O)c2C1
C. CCOCCCn1c(NC(=O)c2ccc3c(c2)CCN3C(C)=O)nc2ccccc21
D. O=C(NCc1ccc(-n2cccn2)nc1)c1cc(-c2ccco2)[nH]n1
E. FC(F)(F)c1ccnc(Nc2ccc(N3CCOCC3)cc2)n1
stdin: // ascending sort on recorded First screening IR (inhibition rate) Enter labels, ranked according to the request.
stdout: A, B, C, D, E

P. Cl.Fc1c(-c2ccccc2)nc2ccc(Cl)cc2c1-c1ccccc1
Q. Cc1ccccc1Nc1nc(N)nc(CSCC(=O)N2CCCCC2)n1
stdin: Higher First screening IR (inhibition rate) between P and Q ? Please indicate the selected item by its label.
stdout: Q
(Q: 18%, P: -12%)

###

# assayed-system: human recombinant Yes [a.a. 2–543 (end)] (Homo sapiens)
# Construct: human recombinant Yes [a.a; 2–543 (end)]; purchased BPS Bioscience 40488
# assay-text: ADP-Glo kinase assay, inhibition rates of Yes phosphorylation activity (first and second screening)
# Type: biochemical
# condition-label: first screening; mean of n = 4 wells; 10 μmol L−1 compound
property-label: First screening IR (inhibition rate) (%)

- OC1CCC(Nc2ncnc3cccc(I)c23)CC1 (stereo not drawn) [Compound Z1661333590]: 10
- CNc1snc(C)c1C(=O)OCc1csc(-c2ccc(F)cc2)n1 [Compound Z166256344]: -7
- COc1cc(NC(=O)c2cc(-c3ccccc3)nc3c2cnn3C(C)C)cc(OC)c1 [Compound Z52023681]: -11
- Cc1cccc(OCC(=O)Nc2sc3c(c2C(N)=O)CCC3)c1 [Compound Z26345967]: 18
- CC(NC(=O)c1ccc2[nH]cnc2n1)c1ccc(-c2cncnc2)cc1 (stereo not drawn) [Compound Z1669230171]: 8

a. Cc1noc2ncc(C(=O)NCc3cccc(Cn4ccnc4)c3)cc12 [Compound Z395825976]
b. CC(C)n1ncc2c(C(=O)O)cc(-c3ccc4c(c3)OCCO4)nc21 [Compound Z56643642]
stdin: Select the item whose First screening IR (inhibition rate) value is smaller, choosing between a and b . Kindly give the label for the entry you pick.
stdout: a
(a: -16%, b: 2%)
